Test: Solubility in water or bicarbonate buffer
Format: physicochemical

{"columns": ["molecule", "solubility in water (in words)"],
 "data": [
  ["N[C@H]1CC[C@@H](COC(=O)NC2CC(=O)NC2=O)CC1 (stereo partly shown) [16a]", "water-soluble"],
  ["NCc1ccc(COC(=O)NC2CCC(=O)NC2=O)cc1.O=C(O)C(F)(F)F (stereo not shown) [11b]", "water-soluble"],
  ["NCc1ccc(COC(=O)NC2CC(=O)NC2=O)cc1.O=C(O)C(F)(F)F (stereo not shown) [11a]", "water-soluble"],
  ["N[C@H]1CC[C@@H](COC(=O)NC2CCC(=O)NC2=O)CC1 (stereo partly shown) [16b]", "water-soluble"]
]}
